- assay_system: RNF31 PUB domain (Homo sapiens)
- Construct: MBP-TEV (N, cleaved yes); made in house; host or cells: E. coli BL21 (DE3) pLysS
- Sequence (Q96EP0 1-179): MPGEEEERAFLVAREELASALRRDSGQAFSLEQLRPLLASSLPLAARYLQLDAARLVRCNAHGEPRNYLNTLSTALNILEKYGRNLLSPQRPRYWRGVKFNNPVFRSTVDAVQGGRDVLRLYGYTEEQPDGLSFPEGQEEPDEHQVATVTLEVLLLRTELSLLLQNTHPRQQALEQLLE
- experiment_summary: Phage Library Screening with NGS, RNF31 PUB domain
- Type: binding
- conditions_used: clusters C41-C45; BLANK screen, column 2 of 5
Bridge positions count the residues as written; N and C are the ends.
result_type: Phage library screen NGS readout, BLANK
Just the number, please.

Find Phage library screen NGS readout, BLANK for "DPAWLDCIYAAYDCVTD" on RNF31 PUB domain (Homo sapiens) and write it down.
1

Find the measured Phage library screen NGS readout, BLANK of DPAIVQCAWAALYCDMQ (Ac-DPAIVQCAWAALYCDMQ-NH2; bridge 7-14; also: Cys-Cys staple, linker not named) with RNF31 PUB domain (Homo sapiens) as test system.
0

Under RNF31 PUB domain (Homo sapiens): report Phage library screen NGS readout, BLANK of "DPAQEECFEAAVFCSYY" .
0

// fetch Phage library screen NGS readout, BLANK for "DPAYDWCLYAAEYCHTD" ; system: RNF31 PUB domain (Homo sapiens)
0

Report Phage library screen NGS readout, BLANK under test system RNF31 PUB domain (Homo sapiens) for "DPAVVDCWDAAVQCTYY" .
0

Enter measured Phage library screen NGS readout, BLANK, system RNF31 PUB domain (Homo sapiens), for the sequence shown: "DPAYDLCLNAAVACTYV"
2

Lab note: record Phage library screen NGS readout, BLANK of "DPAYSLCISAAVECTYY" tested on RNF31 PUB domain (Homo sapiens).
0

----------
- assay_system: RNF31 UBA domain (Homo sapiens, UniProt Q96EP0)
- Construct: RNF31 UBA domain protein (residues 480-639) with N-terminal Thioredoxin-TEV-6×his-yBBr-3C tags; Thioredoxin (N, cleaved yes); made in house; host or cells: E. coli BL21 (DE3) pLysS
- Sequence (Q96EP0 480-639): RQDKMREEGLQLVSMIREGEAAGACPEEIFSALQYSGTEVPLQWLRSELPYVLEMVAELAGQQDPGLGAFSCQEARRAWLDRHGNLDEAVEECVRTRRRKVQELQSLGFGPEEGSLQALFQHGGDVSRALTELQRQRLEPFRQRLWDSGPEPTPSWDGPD
- experiment_summary: Phage Library Screening with NGS, RNF31 UBA domain
- Assay type: binding
- conditions_used: Target Concentration 10; no competitor
Answer each item with its documented phage screen NGS read-out at Target Concentration 10.
Field format: numeric only.

Return phage screen NGS read-out at Target Concentration 10 (reported value) for this sequence: "DPAQNHCDSAAVFCYIL"
0

For the sequence "DPAREHCDSAAAWCWVL" , give its reported phage screen NGS read-out at Target Concentration 10.
0

Look up and state reported phage screen NGS read-out at Target Concentration 10 for "DPAHHHCQAAAAWCWVM"
2

Note phage screen NGS read-out at Target Concentration 10 for the sequence shown: "DPALSTCVYAAVMCQDV"
0

Annotate the sequence "DPAFSACVYAAYMCNQD" with its measured phage screen NGS read-out at Target Concentration 10.
0

Output phage screen NGS read-out at Target Concentration 10 of "DPALQHCAAAASWCWLM"
1

Output measured phage screen NGS read-out at Target Concentration 10 for this item: "DPAFSQCIYAAFQCDMQ"
0

Identify phage screen NGS read-out at Target Concentration 10 associated with the sequence "DPAFFTCVYAAVTCEMT"
0

Return reported phage screen NGS read-out at Target Concentration 10. Input sequence: "DPAFSTCIYAAVMCMDQ"
0

Output phage screen NGS read-out at Target Concentration 10 of "DPADWTCVLAAHNCLYT"
0

Report measured phage screen NGS read-out at Target Concentration 10; entry is "DPAQVHCRSAAAWCILM"
0

Give the reported value of phage screen NGS read-out at Target Concentration 10 for this record: "DPASMVCLSAAVYCAMH"
1

Could you please provide reported phage screen NGS read-out at Target Concentration 10 for "DPARYHCEAAAAWCELL" ? Thanks!
0

Please list phage screen NGS read-out at Target Concentration 10 recorded for the sequence "DPAFSECVYAAIYCVHS"
0

Supply phage screen NGS read-out at Target Concentration 10 value. Item: "DPAQQHCSAAAAWCVVL"
0

Return the recorded phage screen NGS read-out at Target Concentration 10 value; entry: "DPAMYICEMAAANCLYQ"
0

Give me measured phage screen NGS read-out at Target Concentration 10, please, for this sequence: "DPAFSECVYAATMCLNH"
2

Please indicate phage screen NGS read-out at Target Concentration 10 recorded for "DPANEHCIAAAWWCQIL"
0

Return value of phage screen NGS read-out at Target Concentration 10 for input "DPAAYLCDMAAHNCLYL" , no commentary.
1

Indicate the recorded phage screen NGS read-out at Target Concentration 10 value for this sequence: "DPATLVCTMAANNCIYR"
0

Item "DPATQHCLAAAMWCHLI" : provide phage screen NGS read-out at Target Concentration 10
0

Supply phage screen NGS read-out at Target Concentration 10 value. Item: "DPAEWICEMAAHNCLYM"
0

Give the measured phage screen NGS read-out at Target Concentration 10 for "DPAAFVCEMAANDCLYT"
0

Item "DPAHVHCQAAAQWCVLL" : provide phage screen NGS read-out at Target Concentration 10
0

// Input: "DPAEYHCDAAAVWCYLM" . Output its phage screen NGS read-out at Target Concentration 10 only.
0
